molecular target: human MET ECD mutant E (mutations 2, 3, 4) (human) (UniProt P08581); assay: ELISA, WT or mutant hMET ECD coated
recorded metric: % binding (EMAX) vs WT MET ECD (%)

INSERT INTO measurements (binder, observed_value) VALUES
  ('71G2 chimeric llama-human IgG1 mAb (antibody, V domains shown, human IgG1 CH1-CH2-CH3 and human CL lambda; also called 71G2 Human IgG1/lambda) VH: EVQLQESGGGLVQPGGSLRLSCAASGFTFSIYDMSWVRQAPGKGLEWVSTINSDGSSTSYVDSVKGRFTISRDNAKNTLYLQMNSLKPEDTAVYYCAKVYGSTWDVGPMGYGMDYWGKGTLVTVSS VL: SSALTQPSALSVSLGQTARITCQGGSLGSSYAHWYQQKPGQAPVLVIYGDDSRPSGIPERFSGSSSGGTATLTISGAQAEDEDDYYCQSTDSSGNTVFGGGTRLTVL', 41.4),
  ('71D6 chimeric llama-human IgG1 mAb (antibody, V domains shown, human IgG1 CH1-CH2-CH3 and human CL lambda; also called 71D6 Human IgG1/lambda) VH: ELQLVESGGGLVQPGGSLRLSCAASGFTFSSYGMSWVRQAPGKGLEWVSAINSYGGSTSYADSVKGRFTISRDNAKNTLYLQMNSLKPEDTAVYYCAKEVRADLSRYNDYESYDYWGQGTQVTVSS VL: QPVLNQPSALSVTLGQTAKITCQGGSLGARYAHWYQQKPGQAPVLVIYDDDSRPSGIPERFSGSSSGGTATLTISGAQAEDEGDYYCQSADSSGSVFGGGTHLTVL', 43.6),
  ('71D4 chimeric llama-human IgG1 mAb (antibody, V domains shown, human IgG1 CH1-CH2-CH3 and human CL lambda) VH: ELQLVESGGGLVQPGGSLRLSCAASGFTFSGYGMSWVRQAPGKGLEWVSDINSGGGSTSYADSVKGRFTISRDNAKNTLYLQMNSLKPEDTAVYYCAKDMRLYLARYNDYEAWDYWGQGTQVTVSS VL: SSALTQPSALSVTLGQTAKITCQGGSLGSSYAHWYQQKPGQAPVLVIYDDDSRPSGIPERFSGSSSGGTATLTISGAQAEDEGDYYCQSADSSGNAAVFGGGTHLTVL', 57.2),
  ('71A3 chimeric llama-human IgG1 mAb (antibody, V domains shown, human IgG1 CH1-CH2-CH3 and human CL lambda) VH: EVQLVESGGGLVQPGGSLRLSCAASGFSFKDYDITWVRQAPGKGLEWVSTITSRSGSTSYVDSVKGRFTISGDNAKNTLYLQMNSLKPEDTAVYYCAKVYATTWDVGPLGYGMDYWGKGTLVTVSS VL: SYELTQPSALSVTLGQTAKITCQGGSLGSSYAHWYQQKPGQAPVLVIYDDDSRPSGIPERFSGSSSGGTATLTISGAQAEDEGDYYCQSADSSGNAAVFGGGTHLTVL', 65.4);
